target: P-selectin (Homo sapiens, UniProt P16109); experiment: Inhibitory activity against human chimeric Selectin P-Ig
Sequence (P16109 whole entry): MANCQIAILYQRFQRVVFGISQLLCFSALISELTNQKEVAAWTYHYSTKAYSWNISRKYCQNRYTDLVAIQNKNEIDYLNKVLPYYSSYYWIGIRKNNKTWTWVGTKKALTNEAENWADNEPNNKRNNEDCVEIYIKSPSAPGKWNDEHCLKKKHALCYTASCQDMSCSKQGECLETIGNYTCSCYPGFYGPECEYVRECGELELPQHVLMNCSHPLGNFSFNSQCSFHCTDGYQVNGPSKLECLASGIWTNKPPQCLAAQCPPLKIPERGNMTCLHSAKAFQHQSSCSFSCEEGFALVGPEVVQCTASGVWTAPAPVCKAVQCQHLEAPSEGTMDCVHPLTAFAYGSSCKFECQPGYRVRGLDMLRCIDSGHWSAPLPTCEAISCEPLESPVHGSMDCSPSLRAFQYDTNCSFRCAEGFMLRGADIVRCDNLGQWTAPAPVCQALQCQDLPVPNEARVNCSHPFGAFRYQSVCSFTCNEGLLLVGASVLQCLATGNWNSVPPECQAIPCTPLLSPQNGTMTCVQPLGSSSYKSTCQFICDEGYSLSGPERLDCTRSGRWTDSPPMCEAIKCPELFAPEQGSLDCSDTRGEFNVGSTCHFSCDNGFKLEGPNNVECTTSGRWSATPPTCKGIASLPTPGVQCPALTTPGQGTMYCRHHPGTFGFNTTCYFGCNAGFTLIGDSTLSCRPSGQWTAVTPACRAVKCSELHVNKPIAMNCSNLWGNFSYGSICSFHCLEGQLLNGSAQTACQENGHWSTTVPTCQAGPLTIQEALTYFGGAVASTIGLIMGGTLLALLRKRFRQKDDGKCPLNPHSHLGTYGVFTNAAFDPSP
TEST READOUT: pIC50
Answers are plain numbers, as −log10 of the molar value.

# input So what's the measured pIC50 for this one? `C[C@@H]1O[C@@H](O[C@H]2[C@H](O[C@@H]3O[C@H](CO)[C@H](O)[C@H](OS(=O)(=O)O)[C@H]3O)[C@@H](CO)OC[C@@H]2O)[C@@H](O)[C@H](O)[C@@H]1O`
# output 3.17
